Origin of the recorded values: patent US20240199598A1

Assay: Physicochemical stability test of free form and 5 salts (60° C., 40° C./75% humidity, light)
Conditions: 40° C./75% RH, 1 w; summary Table 9
Task for the reader: assign each of the following compounds its reported Chemical stability (purity change %/1 w), 40° C./75% RH.
Answers are plain numbers, in %.

Give measured Chemical stability (purity change %/1 w), 40° C./75% RH for every item shown.
1. Cc1ccc(S(=O)(=O)O)cc1.O=S1(=O)CCN(Cc2cc(NC3CCOCC3)c3[nH]c(-c4ccccc4)cc3c2)CC1 [Tosylate]
2. O=S1(=O)CCN(Cc2cc(NC3CCOCC3)c3[nH]c(-c4ccccc4)cc3c2)CC1 [Sulfate]
3. CS(=O)(=O)O.O=S1(=O)CCN(Cc2cc(NC3CCOCC3)c3[nH]c(-c4ccccc4)cc3c2)CC1 [Mesylate]
4. Cl.O=S1(=O)CCN(Cc2cc(NC3CCOCC3)c3[nH]c(-c4ccccc4)cc3c2)CC1 [Hydrochloride]
5. O=C(O)/C=C\C(=O)O.O=S1(=O)CCN(Cc2cc(NC3CCOCC3)c3[nH]c(-c4ccccc4)cc3c2)CC1 [Maleate]

Ans:
−0.01
−0.43
−3.29
−0.05
−0.77

###

Assay: Solubility of compound of Chemical Formula 1 in various solvents
Format: physicochemical
Conditions: organic solvent or mixture; Acetonitrile (ACN), 50° C.; read-out: Solubility
measurementLabel: solubility (µg/mL)
One number for each entry, in µg/mL.

Q: Given O=S1(=O)CCN(Cc2cc(NC3CCOCC3)c3[nH]c(-c4ccccc4)cc3c2)CC1 , state its recorded solubility.
Ans: 4040

###

Assay: Solubility of compound of Chemical Formula 1 in various solvents
Assay type: physicochemical
Settings: organic solvent or mixture; 1-Butanol, 50° C.; read-out: Solubility
measurementLabel: solubility (µg/mL)
Give bare numbers, in µg/mL.

Q: Look at this molecule and give its reported solubility. O=S1(=O)CCN(Cc2cc(NC3CCOCC3)c3[nH]c(-c4ccccc4)cc3c2)CC1
Ans: 1000

###

Assay: Oral administration pharmacokinetic test using mice
Conditions: mouse, in vivo, po, 10 mg/kg
measurementLabel: Tmax (min)
Numbers only, in min.

Q: # lookup: Tmax of O=S1(=O)CCN(Cc2cc(NC3CCOCC3)c3[nH]c(-c4ccccc4)cc3c2)CC1 [compound of Chemical Formula 1]
Ans: 30

###

Assay: Solubility test of sulfate (Crystalline form III) in various solvents
Format: physicochemical
Conditions: organic solvent or mixture, thermodynamic from solid; MEK, 50° C.; read-out: Solubility
measurementLabel: solubility

Q: Recorded solubility for O=S1(=O)CCN(Cc2cc(NC3CCOCC3)c3[nH]c(-c4ccccc4)cc3c2)CC1 [Sulfate] , please?
Ans: < 2000 µg/mL

###

Assay: Solubility of compound of Chemical Formula 1 in various solvents
Type: physicochemical
Conditions: organic solvent or mixture; Acetonitrile (ACN), 25° C.; read-out: Solubility
measurementLabel: solubility (µg/mL)
Numbers only, in µg/mL.

Q: Need solubility of O=S1(=O)CCN(Cc2cc(NC3CCOCC3)c3[nH]c(-c4ccccc4)cc3c2)CC1 , thanks.
Ans: 3090

###

Assay: Solubility of compound of Chemical Formula 1 in various solvents
Format: physicochemical
Settings: organic solvent or mixture; Methyl tert-butyl ether (MTBE), 25° C.; read-out: Solubility
measurementLabel: solubility (µg/mL)
Give bare numbers, in µg/mL.

Q: Report solubility for O=S1(=O)CCN(Cc2cc(NC3CCOCC3)c3[nH]c(-c4ccccc4)cc3c2)CC1 [compound of Chemical Formula 1] please.
Ans: 60
